We begin with a simple list: items and their reported selectivity ratio.
Assay: Selectivity ratio of IC50 for human MRC5 cells to IC50 for human SKMES1 cells
Format: ADME, cell-based
Conditions: MRC5 cells versus SKMES1 cells, read-out: Ratio IC50
MEASURED_PROPERTY: selectivity ratio

COMPOUND: COc1cc2c3c(c1[N+](=O)[O-])CCN=C3c1ccccc1C2=O
MEASURED_VALUE: 0.5
//
COMPOUND: COc1cc2c3c(ncc(Br)c3c1)-c1ccccc1C2=O
MEASURED_VALUE: 3.1
//
COMPOUND: COc1cc([C@@H]2c3cc4c(cc3[C@@H](O[C@@H]3O[C@@H]5CO[C@@H](C)O[C@H]5[C@H](O)[C@H]3O)[C@H]3COC(=O)[C@H]23)OCO4)cc(OC)c1O [ETOPOSIDE]
MEASURED_VALUE: 1.6
//
COMPOUND: COc1cc2c3c(c1)C(=O)c1ccccc1C3=NCC2
MEASURED_VALUE: 4.7
//
COMPOUND: COc1c([N+](=O)[O-])cc2c(c1[N+](=O)[O-])C(=O)c1ccccc1C2=O
MEASURED_VALUE: 0.7
//
COMPOUND: O=C1c2ccccc2C2=NCCc3cccc1c32
MEASURED_VALUE: 1
//
COMPOUND: COc1cc2c3c(nccc3c1[N+](=O)[O-])-c1ccccc1C2=O
MEASURED_VALUE: 0.6
//
COMPOUND: COc1cc2c3c(c1O)C(=O)c1ccccc1C3=NCC2
MEASURED_VALUE: 0.6

====

Assay: Selectivity ratio of IC50 for human MRC5 cells to IC50 for human J82 cells
Assay type: ADME, cell-based
Settings: MRC5 cells versus J82 cells, read-out: Ratio IC50
MEASURED_PROPERTY: selectivity ratio

COMPOUND: COc1cc2c3c(c1)C(=O)c1ccccc1C3=NCC2
MEASURED_PROPERTY: selectivity ratio
MEASURED_VALUE: 28

COMPOUND: COc1cc([C@@H]2c3cc4c(cc3[C@@H](O[C@@H]3O[C@@H]5CO[C@@H](C)O[C@H]5[C@H](O)[C@H]3O)[C@H]3COC(=O)[C@H]23)OCO4)cc(OC)c1O [ETOPOSIDE]
MEASURED_PROPERTY: selectivity ratio
MEASURED_VALUE: 1.4

COMPOUND: COc1cc2c3c(c1O)C(=O)c1ccccc1C3=NCC2
MEASURED_PROPERTY: selectivity ratio
MEASURED_VALUE: 7.3

COMPOUND: COc1c([N+](=O)[O-])cc2c(c1[N+](=O)[O-])C(=O)c1ccccc1C2=O
MEASURED_PROPERTY: selectivity ratio
MEASURED_VALUE: 0.6

COMPOUND: COc1cc2c3c(c1[N+](=O)[O-])CCN=C3c1ccccc1C2=O
MEASURED_PROPERTY: selectivity ratio
MEASURED_VALUE: 0.5

COMPOUND: O=C1c2ccccc2C2=NCCc3cccc1c32
MEASURED_PROPERTY: selectivity ratio
MEASURED_VALUE: 33

COMPOUND: COc1cc2c3c(ncc(Br)c3c1)-c1ccccc1C2=O
MEASURED_PROPERTY: selectivity ratio
MEASURED_VALUE: 12

COMPOUND: COc1cc2c3c(nccc3c1[N+](=O)[O-])-c1ccccc1C2=O
MEASURED_PROPERTY: selectivity ratio
MEASURED_VALUE: 0.4

====

We begin with a simple list: items and their reported selectivity ratio.
Assay: Selectivity ratio of IC50 for human MRC5 cells to IC50 for human HL60 cells
Type: ADME, cell-based
Settings: MRC5 cells versus HL60 cells, read-out: Ratio IC50
MEASURED_PROPERTY: selectivity ratio

COMPOUND: COc1c([N+](=O)[O-])cc2c(c1[N+](=O)[O-])C(=O)c1ccccc1C2=O
MEASURED_PROPERTY: selectivity ratio
MEASURED_VALUE: 2.8

COMPOUND: COc1cc([C@@H]2c3cc4c(cc3[C@@H](O[C@@H]3O[C@@H]5CO[C@@H](C)O[C@H]5[C@H](O)[C@H]3O)[C@H]3COC(=O)[C@H]23)OCO4)cc(OC)c1O [ETOPOSIDE]
MEASURED_PROPERTY: selectivity ratio
MEASURED_VALUE: 2.2
